target desc: human orexin-2 receptor (Homo sapiens (Human))
Sequence (O43614 whole entry): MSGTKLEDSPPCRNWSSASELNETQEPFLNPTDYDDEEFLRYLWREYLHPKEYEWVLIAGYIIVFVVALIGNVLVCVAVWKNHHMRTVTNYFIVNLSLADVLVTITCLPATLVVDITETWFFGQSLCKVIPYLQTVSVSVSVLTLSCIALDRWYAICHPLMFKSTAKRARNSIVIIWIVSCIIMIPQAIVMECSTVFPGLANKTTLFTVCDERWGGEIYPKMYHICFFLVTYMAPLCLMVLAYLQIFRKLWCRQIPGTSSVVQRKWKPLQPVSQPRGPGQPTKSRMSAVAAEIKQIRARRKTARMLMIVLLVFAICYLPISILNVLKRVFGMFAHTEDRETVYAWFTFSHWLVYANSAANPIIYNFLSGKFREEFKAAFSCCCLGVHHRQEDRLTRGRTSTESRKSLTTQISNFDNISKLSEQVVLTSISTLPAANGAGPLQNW
assay explanation: In vitro assay: intracellular calcium measurements (FLIPR), antagonistic activity
assay conditions: CHO cells expressing human orexin-2 receptor, orexin-A agonist, geometric mean, read-out: IC50 Ox2
# maps each entry to its IC50
measured attribute: IC50

C=C1C[C@@H](c2nc3ccc(Cl)c(C)c3[nH]2)N(C(=O)c2nc(C)sc2-c2ccc(Cl)cc2)C1 [Ex. 6.119]	3 nM
COc1ccc(-c2sc(C)nc2C(=O)N2C[C@H](OC)C[C@H]2c2nc3ccc(Cl)c(C)c3[nH]2)cc1 [Ex. 3.37]	8 nM
COc1ccc(-c2sc(C)nc2C(=O)N2CC[C@H](C)[C@H]2c2nc3c(C)c(Cl)ccc3[nH]2)cn1 [Ex. 4.69]	191 nM
Cc1ccc(-c2cccc(C#N)c2)c(C(=O)N2CCC[C@@]2(C)c2nc3cc(C(F)(F)F)ccc3[nH]2)c1 [Ex. 5.190]	119 nM

----------
target desc: human orexin-1 receptor (Homo sapiens (Human), UniProt O43613)
Sequence (O43613 whole entry): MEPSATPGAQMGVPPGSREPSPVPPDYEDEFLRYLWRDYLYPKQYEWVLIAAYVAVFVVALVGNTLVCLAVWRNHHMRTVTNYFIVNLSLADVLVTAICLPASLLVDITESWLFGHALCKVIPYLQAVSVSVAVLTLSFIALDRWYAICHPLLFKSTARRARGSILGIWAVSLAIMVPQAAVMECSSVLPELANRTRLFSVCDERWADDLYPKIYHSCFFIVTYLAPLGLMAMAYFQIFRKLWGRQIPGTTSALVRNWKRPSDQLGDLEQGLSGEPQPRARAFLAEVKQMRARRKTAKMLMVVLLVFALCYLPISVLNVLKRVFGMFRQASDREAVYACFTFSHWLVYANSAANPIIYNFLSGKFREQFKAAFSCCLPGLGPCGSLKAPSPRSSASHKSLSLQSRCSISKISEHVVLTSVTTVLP
assay explanation: In vitro assay: intracellular calcium measurements (FLIPR), antagonistic activity
assay conditions: CHO cells expressing human orexin-1 receptor, orexin-A agonist, geometric mean, read-out: IC50 Ox1
Mark each entry yes (1) if its IC50 sits below 30 nM, and no (0) for all others.

COc1cc2nc([C@]3(C)CCCN3C(=O)c3nc(C)sc3-c3ccc(C(F)(F)F)cc3)[nH]c2cc1OC	no (0)
COc1cc(C(=O)N2C[C@H](OC)CC2(C)c2nc3c(C)c(Cl)ccc3[nH]2)c(-n2nccn2)cc1OC (stereo partly shown)	yes (1)
Cc1nc(C(=O)N2CC[C@H](C)[C@H]2c2nc3c(Cl)cccc3[nH]2)c(-c2ccc(Br)cc2)s1	yes (1)
Cc1ccc(-n2nccn2)c(C(=O)N2CC[C@H](C)[C@H]2c2nc3cc(C)ccc3[nH]2)c1	no (0)
C=C1C[C@@H](c2nc3cc(OC)ccc3[nH]2)N(C(=O)c2nc(C3CC3)sc2-c2cccc(Br)c2)C1	yes (1)
COc1ccc(-n2nccn2)c(C(=O)N2CCC[C@@]2(C)c2nc3cc(F)c(Br)cc3[nH]2)c1F	no (0)
C=C1C[C@@H](c2nc3cccc(C)c3[nH]2)N(C(=O)c2nc(C)sc2-c2ccc(Cl)c(Cl)c2)C1	yes (1)

----------
target desc: human orexin-1 receptor (Homo sapiens (Human))
assay explanation: In vitro assay: intracellular calcium measurements (FLIPR), antagonistic activity
Format: cell-based
assay conditions: CHO cells expressing human orexin-1 receptor, orexin-A agonist, geometric mean, read-out: IC50 Ox1
measured attribute: log10(IC50) (log10 of the value in nM)

Cc1ccc(-c2ccccc2C(=O)N2CC[C@H](C)[C@H]2c2nc3c(C)cc(Cl)cc3[nH]2)cc1	0.70
COc1ccc(-n2nccn2)c(C(=O)N2C[C@H](OC)C[C@H]2c2nc3ccc(Cl)c(C)c3[nH]2)c1F	0.78
C=C1C[C@@H](c2nc3c(C)c(C)ccc3[nH]2)N(C(=O)c2cc(C)ccc2-n2nccn2)C1	1.94
Cc1ccc(-c2ccc(C)cc2C(=O)N2CCC[C@@]2(C)c2nc3cc(C)c(C)cc3n2C)cc1	1.04
C=C1C[C@@H](c2nc3cc(C)c(C)cc3[nH]2)N(C(=O)c2nc(C)sc2-c2ccc(C)c(C)c2)C1	0.78
Cc1ccc(-c2cccc(C#N)c2)c(C(=O)N2CCC[C@@]2(C)c2nc3cc(C(F)(F)F)c(Cl)cc3[nH]2)c1	1.36
C=C1CN(C(=O)c2nc(N(C)C)sc2-c2ccc(C)c(C)c2)C(C)(c2nc3cc(OC)ccc3[nH]2)C1 (stereo not shown)	1.18

Hey, just so you know, these numbers are from patent US9732075B2.
